Where do the numbers come from? From ChEMBL document CHEMBL4017441.

pIC50: −log10 of the molar value.
Here's what we have: pIC50 numbers for Bile salt export pump (Homo sapiens, UniProt O95342).

# molecule, study-target, pIC50
rows = [
    ("CCN(CC)CCNc1ccc(CO)c2sc3ccccc3c(=O)c12", "Bile salt export pump (Homo sapiens, UniProt O95342)", 4.53),
    ("CC(C)NCC(O)COc1ccc(CCOCC2CC2)cc1 (stereo unspecified)", "Bile salt export pump (Homo sapiens, UniProt O95342)", "< 3.00"),
    ("CN(C)C(=O)c1ccc(S(=O)(=O)c2ccc(NC(=O)[C@@](C)(O)C(F)(F)F)c(Cl)c2)cc1", "Bile salt export pump (Homo sapiens, UniProt O95342)", "> 4.89"),
    ("CCCCCCCCCCCCCCCCCCCCCCO", "Bile salt export pump (Homo sapiens, UniProt O95342)", "< 3.00"),
    ("CCCc1c2c(c(O)c3c(=O)cc(C(=O)O)oc13)CCCC2", "Bile salt export pump (Homo sapiens, UniProt O95342)", 4.52),
    ("N[C@@H]1C[C@H]1c1ccccc1.N[C@H]1C[C@@H]1c1ccccc1", "Bile salt export pump (Homo sapiens, UniProt O95342)", "< 3.00"),
    ("Oc1ccc(C(O)CNCCCCCCNCC(O)c2ccc(O)c(O)c2)cc1O (stereo unspecified) [HEXOPRENALINE]", "Bile salt export pump (Homo sapiens, UniProt O95342)", "< 3.00"),
    ("CC(Oc1ccccc1)C(=O)N[C@@H]1C(=O)N2[C@@H]1SC(C)(C)[C@@H]2C(=O)O (stereo partly specified)", "Bile salt export pump (Homo sapiens, UniProt O95342)", "> 5.00"),
    ("CC(O)(P(=O)(O)O)P(=O)(O)O", "Bile salt export pump (Homo sapiens, UniProt O95342)", "< 3.00"),
    ("CC1=C(/C=C/C(C)=C/C=C/C(C)=C/C=C/C=C(C)/C=C/C=C(C)/C=C/C2=C(C)CCCC2(C)C)C(C)(C)CCC1", "Bile salt export pump (Homo sapiens, UniProt O95342)", "> 5.00"),
    ("COc1ccccc1O", "Bile salt export pump (Homo sapiens, UniProt O95342)", "< 3.00"),
    ("N[C@H]1C[C@@H]1c1ccccc1 [(+)-TRANYLCYPROMINE]", "Bile salt export pump (Homo sapiens, UniProt O95342)", 3.99),
    ("CC(C)(CO)[C@@H](O)C(=O)NCCCO", "Bile salt export pump (Homo sapiens, UniProt O95342)", "< 3.00"),
    ("C[C@H]1C[C@@H]2[C@H]([C@@H](O)C[C@@]3(C)[C@H]2CC[C@]3(O)C(=O)CO)[C@@]2(C)C=CC(=O)C=C12", "Bile salt export pump (Homo sapiens, UniProt O95342)", 4.48),
    ("NNc1nncc2ccccc12 [HYDRALAZINE]", "Bile salt export pump (Homo sapiens, UniProt O95342)", "< 3.00"),
    ("CC(N/C(=N\\C#N)Nc1ccncc1)C(C)(C)C (stereo unspecified) [PINACIDIL ANHYDROUS]", "Bile salt export pump (Homo sapiens, UniProt O95342)", 3.79),
]
